The values you see were collected from patent US8552006B2.

What EC50 was measured for each of the following?
target: ΔF508-CFTR (Homo sapiens, UniProt P13569, DEL508-508); assay: Membrane potential optical assay for potentiators of ΔF508-CFTR (double-addition HTS, FLIPR III); conditions: temperature-corrected ΔF508 CFTR NIH 3T3 cells; potentiation with forskolin activation
Sequence (P13569 with tags, fused parts or gaps DEL508-508): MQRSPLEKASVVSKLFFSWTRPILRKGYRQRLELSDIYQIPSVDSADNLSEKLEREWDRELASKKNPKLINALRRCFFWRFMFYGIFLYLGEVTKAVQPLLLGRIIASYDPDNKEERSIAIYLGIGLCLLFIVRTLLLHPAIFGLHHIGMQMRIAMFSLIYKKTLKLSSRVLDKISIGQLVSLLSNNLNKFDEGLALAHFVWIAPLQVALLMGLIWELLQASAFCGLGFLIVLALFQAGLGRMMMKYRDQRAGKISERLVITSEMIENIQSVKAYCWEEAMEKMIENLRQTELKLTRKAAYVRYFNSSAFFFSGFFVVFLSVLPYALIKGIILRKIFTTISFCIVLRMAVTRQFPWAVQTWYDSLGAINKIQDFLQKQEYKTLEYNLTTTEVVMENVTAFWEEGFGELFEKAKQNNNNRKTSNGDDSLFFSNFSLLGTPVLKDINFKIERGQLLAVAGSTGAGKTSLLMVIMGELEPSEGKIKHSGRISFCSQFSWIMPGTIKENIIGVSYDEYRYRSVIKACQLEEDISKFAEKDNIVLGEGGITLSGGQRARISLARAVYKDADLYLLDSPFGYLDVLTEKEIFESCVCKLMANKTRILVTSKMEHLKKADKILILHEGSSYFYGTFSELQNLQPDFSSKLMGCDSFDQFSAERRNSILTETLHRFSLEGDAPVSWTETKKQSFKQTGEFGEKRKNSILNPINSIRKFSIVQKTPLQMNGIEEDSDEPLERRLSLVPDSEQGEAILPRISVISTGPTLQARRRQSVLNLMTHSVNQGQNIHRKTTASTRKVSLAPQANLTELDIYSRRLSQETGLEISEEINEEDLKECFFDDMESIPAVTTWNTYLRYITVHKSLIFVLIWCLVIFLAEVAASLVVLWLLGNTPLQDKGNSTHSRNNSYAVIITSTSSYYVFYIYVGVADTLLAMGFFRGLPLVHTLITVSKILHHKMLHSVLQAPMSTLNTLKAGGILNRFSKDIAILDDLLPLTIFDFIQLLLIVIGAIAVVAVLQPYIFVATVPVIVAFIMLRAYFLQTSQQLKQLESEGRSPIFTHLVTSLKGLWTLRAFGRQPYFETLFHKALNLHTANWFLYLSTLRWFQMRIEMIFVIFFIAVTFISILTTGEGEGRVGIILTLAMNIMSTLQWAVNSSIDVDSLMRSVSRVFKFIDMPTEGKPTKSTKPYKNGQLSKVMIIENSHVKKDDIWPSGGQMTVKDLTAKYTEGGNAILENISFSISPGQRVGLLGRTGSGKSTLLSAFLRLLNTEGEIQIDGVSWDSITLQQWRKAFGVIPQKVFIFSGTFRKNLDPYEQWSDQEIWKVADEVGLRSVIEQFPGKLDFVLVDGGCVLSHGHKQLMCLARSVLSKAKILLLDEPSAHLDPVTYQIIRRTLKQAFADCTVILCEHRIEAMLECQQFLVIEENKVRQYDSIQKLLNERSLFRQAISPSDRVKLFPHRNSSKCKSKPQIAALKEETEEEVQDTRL

The examples below pair each entry with its known result.
- CCc1cc2[nH]cc(C(=O)Nc3cc4[nH]ccc4cc3C(F)(F)F)c(=O)n2c1: < 5 µM
- Cc1cc2[nH]cc(C(=O)Nc3cc4[nH]ccc4cc3C(C)(C)C)c(=O)n2n1: < 5 µM
- CCc1cc2[nH]cc(C(=O)Nc3cc(O)c(C4(C)CCCCC4)cc3F)c(=O)n2c1: 5 to 20 µM
- CCc1cc2[nH]cc(C(=O)Nc3cc(O)c(C(C)(C)C)cc3C(C)(C)C)c(=O)n2c1: < 5 µM
- CC(C)(C)c1cc2cc[nH]c2cc1NC(=O)c1c[nH]c2ccnn2c1=O: < 5 µM

I would be grateful if you could provide EC50 for each of the following entries.
1. CC(C)(C)c1cc(C(C)(C)C)c(NC(=O)c2c[nH]c3ccnn3c2=O)cc1O
2. Cc1cc2[nH]cc(C(=O)Nc3ccc4c(C(F)(F)F)c[nH]c4c3)c(=O)n2c1
3. O=C(Nc1cc2[nH]ccc2cc1C(F)(F)F)c1c[nH]c2ccnn2c1=O

1: < 5 µM; 2: < 5 µM; 3: 5 to 20 µM
